- assay system: T1, CD137-hisFc fusion protein (Sino Biological Cat 10041-H03H) (human, UniProt Q07011 24-186)
- T1 construct: Bought; also called recombinant human CD137 (fused with human Fc and His tag); not shown: His tag and human Fc
- test details: BLI Octet, Fab
The reader will find reported pKd values listed item by item below.
Would you please state pKd, meaning minus log10 of the concentration in mol/L, as a bare number?

[
  {
    "binder": "Fab 5303 (Fab, V domains shown, Fab from E. coli; also called VH14/VL14) VH: EVQLVESGGGLVQPGGSLRLSCAASGFSLSTSGVAVGWIRQAPGKGLEWLALIDWADDKYYSPSLKSRLTISRDNSKNTLYLQLNSLRAEDTAVYYCAREGSDAVLGDWFAYWGQGTLVTVSS VL: DIQLTQSPSSLSASVGDRVTITCRASQDISTFLAWYQQKPGKAPKLLIYDASSLESGVPSRFSGSGSGTDFTLTISSLQPEDFATYYCQQAYSIWTFGQGTKVEIKR",
    "recorded endpoint": "pKd",
    "reported": 8.29
  },
  {
    "binder": "Fab 7133 (Fab, V domains shown, Fab from E. coli; also called VH56/VL56) VH: EVQLVESGGGLVQPGGSLRLSCAASGFSLSTSGVGVAWIRQAPGKGLEWVSSISGYGGTTYYADSVKGRFTISRDNSKNRLYLQLNSLRAEDTAVYYCAREGSDTVLGDWFAYWGQGTLVTVSS VL: DIQLTQSPSSLSASVGDRVTITCRASQGVSSYLAWYQQKPGKAPKLLIYDASNLETGVPSRFSGSGSGTDFTLTISSLQPEDFATYYCQQYYTTPLTFGQGTKVEIKR",
    "recorded endpoint": "pKd",
    "reported": 7.39
  },
  {
    "binder": "Fab 5346 (Fab, V domains shown, Fab from E. coli; also called VH22/VL22) VH: EVQLVESGGGLVQPGGSLRLSCAASGFSLSTGGVGVGWIRQAPGKGLEWVSGISGYGSTTYYADSVKGRFTISRDNSKNTLYLQLNSLRAEDTAVYYCAREGSDAVAGDWFDYWGQGTLVTVSS VL: DIQLTQSPSSLSASVGDRVTITCRASQDIRSYLAWYQQKPGKAPKLLIYDASNRATGIPSRFSGSGSGTDFTLTISSLQPEDFATYYCQQGYSIWTFGQGTKVEIKR",
    "recorded endpoint": "pKd",
    "reported": 7.79
  }
]

# input binder: Fab 7131 (Fab, V domains shown, Fab from E. coli; also called VH55/VL55) VH: EVQLVESGGGLVQPGGSLRLSCAASGFSLSTGGVGVGWIRQAPGKGLEWVSYISGAGDSTYYADSVKGRFTISRDNSKNTLYLQLNSLRAEDTAVYYCAREGSDTVLGDWFAYWGQGTLVTVSS VL: DIQLTQSPSSLSASVGDRVTITCRASQGVSSYLAWYQQKPGKAPKLLIYDASNLETGVPSRFSGSGSGTDFTLTISSLQPEDFATYYCQQYYTTPLTFGQGTKVEIKR ; wanted: its pKd
7.52

What do we get for Fab 7163 (Fab, V domains shown, Fab from E. coli; also called VH59/VL59) VH: EVQLVESGGGLVQPGGSLRLSCAASGFSLSTSGVGVTWIRQAPGKSLEWIGDIYHSGSTYYSPSLKSRVTISRDNSKNTLYLQLNSLRAEDTAVYYCAREGSDAVAGDWFDYWGQGTLVTVSS VL: DIQLTQSPSSLSASVGDRVTITCRASQSISSYLNWYQQKPGKAPKLLIYAASTLQSGVPSRFSGSGSGTDFTLTISSLQPEDFATYYCQQYYSTPLTFGQGTKVEIKR ?
7.90

Now give it for Fab 5353 (Fab, V domains shown, Fab from E. coli; also called VH26/VL26) VH: EVQLVESGGGLVQPGGSLRLSCAASGFTFSSYWIHWVRQAPGKGLEWVSVISGDGDTTYYADSVKGRFTISRDNSKNTLYLQLNSLRAEDTAVYYCARSRGLVLDAFDYWGQGTLVTVSS VL: DIQLTQSPSSLSASVGDRVTITCRASQSVSGRFLAWYQQKPGKAPKLLIYDASSLESGVPSRFSGSGSGTDFTLTISSLQPEDFATYYCQQYDYWPPYTFGQGTKVEIKR too.
7.79

Also check Fab 7077 (Fab, V domains shown, Fab from E. coli; also called VH40/VL40) VH: EVQLVESGGGLVQPGGSLRLSCAASGFSLSTGGVGVAWIRQAPGKGLEWVSYISGSGDTTYYADSVKGRFTISRDNSKNTLYLQLNSLRAEDTAVYYCAREGSDTVVGDWFAYWGQGTLVTVSS VL: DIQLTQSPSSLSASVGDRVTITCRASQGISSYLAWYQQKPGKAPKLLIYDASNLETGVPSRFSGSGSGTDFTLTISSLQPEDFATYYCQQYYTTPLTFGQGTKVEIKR
7.73

Repeat for the following binder: Fab 7087 (Fab, V domains shown, Fab from E. coli; also called VH45/VL45) VH: EVQLVESGGGLVQPGGSLRLSCAASGFSLSTGGVGVGWIRQAPGKGLEWVSYISGDGDTTYYADSVKGRFTISRDNSKNTLYLQLNSLRAEDTAVYYCAREGSTAVLGDWFAYWGQGTLVTVSS VL: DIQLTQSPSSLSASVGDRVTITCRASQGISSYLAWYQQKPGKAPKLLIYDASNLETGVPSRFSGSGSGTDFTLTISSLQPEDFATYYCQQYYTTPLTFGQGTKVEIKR
7.16

Request: Fab 7105 (Fab, V domains shown, Fab from E. coli; also called VH51/VL51) VH: EVQLVESGGGLVQPGGSLRLSCAASGFSLSTGGVGVGWIRQAPGKGLEWVSYISGAGSTTYYADSVKGRFTISRDNSKNTLYLQLNSLRAEDTAVYYCAREGSDTVLGDWFAYWGQGTLVTVSS VL: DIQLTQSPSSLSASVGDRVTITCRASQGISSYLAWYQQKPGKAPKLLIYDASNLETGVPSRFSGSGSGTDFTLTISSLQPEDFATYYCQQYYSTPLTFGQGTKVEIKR
7.48

Please give the result for Fab 5413 (Fab, V domains shown, Fab from E. coli; also called VH38/VL38) VH: EVQLVESGGGLVQPGGSLRLSCAASGFSLSTGGVAVGWIRQAPGKGLEWLALIDWDGDKSYSTSLKSRLTISRDNSKNTLYLQLNSLRAEDTAVYYCAREGSTAVVGDWFDYWGQGTLVTVSS VL: DIQLTQSPSSLSASVGDRVTITCRASQGISRYLAWYQQKPGKAPKLLIYDASNRATGIPSRFSGSGSGTDFTLTISSLQPEDFATYYCQQGYSLWTFGQGTKVEIKR too.
9.00

Where do these numbers come from? They come from patent US20190055314A1.
